assay_remarks: Cytotoxicity test (SRB), A431
Assay type: cell-based
run_parameters: human, A431 skin cancer cells
Parameter IC50 at 72 h: see the listing below.

Below: 10 compounds and their reported IC50 at 72 h.
CCN(CC)CC(=O)Nc1c(C)[nH]c(/C=C2\C(=O)Nc3ccc(NS(C)(=O)=O)cc32)c1C: 6.57 µM
CCN(CC)CC(=O)Nc1c(C)[nH]c(/C=C2\C(=O)Nc3cc(OC)ccc32)c1C: > 30 µM
Cc1[nH]c(/C=C2\C(=O)Nc3ccc(F)cc32)c(C)c1NC(=O)CCN(C)C: > 30 µM
CCN(CC)CC(=O)Nc1c(C)[nH]c(/C=C2\C(=O)Nc3ccc(F)cc32)c1C: > 30 µM
CCN(CC)CC(=O)Nc1c(C)[nH]c(/C=C2\C(=O)Nc3ccc([N+](=O)[O-])cc32)c1C: > 30 µM
Cc1[nH]c(/C=C2\C(=O)Nc3ccc(F)cc32)c(C)c1NC(=O)CN1CCOCC1: 7.6 µM
CCN(CC)CC(=O)Nc1c(C)[nH]c(/C=C2\C(=O)Nc3cc(C)ccc32)c1C: > 30 µM
CCN(CC)CCC(=O)Nc1c(C)[nH]c(/C=C2\C(=O)Nc3ccc(Br)cc32)c1C: > 30 µM
CCN(CC)CC(=O)Nc1c(C)[nH]c(/C=C2\C(=O)Nc3ccc(NC(C)=O)cc32)c1C: > 30 µM
Cc1[nH]c(/C=C2\C(=O)Nc3ccc(F)cc32)c(C)c1NC(=O)CCCN(C)C: > 30 µM

Kindly note the recorded IC50 at 72 h for CCN1CCN(CCC(=O)Nc2c(C)[nH]c(/C=C3\C(=O)Nc4ccc(F)cc43)c2C)CC1 , which is > 30 µM

Kindly note the recorded IC50 at 72 h for CCN(CC)CCC(=O)Nc1c(C)[nH]c(/C=C2\C(=O)Nc3ccc(NS(C)(=O)=O)cc32)c1C , which is > 30 µM

Kindly note the recorded IC50 at 72 h for CCN(CC)CCNC(=O)c1c(C)[nH]c(/C=C2\C(=O)Nc3ccc(F)cc32)c1C [Sunitinib, reference compound] , which is 1.93 µM

Just for reference, patent US8637681B2 is where these values come from.
